Exercise: state measured growth for each of the compounds provided.
# System: SK-OV-3 ovarian
# PROTOCOL DESCRIPTION: NCI-60 one-dose screen, 48 h (100 = growth as untreated, 0 = no growth, -100 = all killed)
# CONDITION SET: 10 µM unless noted
Compounds without any hit were thinned out: in the full panel of roughly 83,000, 20% have a hit. Active and inactive are the calls of the source. Rule for the calls: active = growth percent below 10; inactive = the rest.

COMPOUND	OBSERVED VALUE
CN1CCC[C@]2(C)[C@H]3CC[C@@H]4[C@@H]5[C@H]6OC[C@@]5(CCC6(C)C)CC[C@@]4(C)[C@]3(C)CC[C@H]2C1(C)C	118% (inactive)
CCCCN1C(=O)/C(=c2\sc3n(c2=O)C2C(NN=3)N(CC)C(=O)N2CC)c2cc(C)ccc21 (centres undefined)	108% (inactive)
CC(Nc1c(C#N)cnc2ccc(-c3cncc(O)c3)cc12)c1ccccc1 (centres undefined)	-3.84% (active)
O=C1Nc2cc(Cl)ccc2/C1=C\c1ccc(OCc2ccccc2)cc1	103% (inactive)
COc1ccc(C(=NNS(=O)(=O)c2ccc(C)cc2)c2ccccc2)cc1OC	107% (inactive)

Please give growth, item by item, for the list that follows.
1. COc1ccc(C2c3[nH]c4ccc(Cl)cc4c3CCN2c2oc(CO)nc2C#N)cc1 (centres undefined)
2. CCCCCCNC(=O)Oc1ccc(/C(=C(/C)c2ccc(Cl)cc2)c2ccc(OCCN3CCCCCC3)cc2)cc1
3. CC(C)(O)c1cncc(-c2ccc3ncc(C#N)c(N4CCc5cc(F)c(Cl)cc54)c3c2)c1
4. O=C(CSc1nnc(-c2ccc(Cl)cc2)n1-c1ccccc1)Nc1cccc(F)c1

["101% (inactive)", "96% (inactive)", "-22.1% (active)", "78.6% (inactive)"]
